Listed compounds paired with reported normalized growth
experiment: chemical genetic growth profiling, strain panel (AID 1159580);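 also: tested at 20 µM; growth read once vehicle control cultures reached saturation at 30 °C; 1 = growth at the plate median or of vehicle wells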; details: S. cerevisiae deletion strains, growth OD, locus YKL203C, strain TOR2, stronger effect = lower value
The campaign covered roughly 5,500 compounds. About 2,000 (36%) were called active. Inconclusive results (about 18%) are left out. The list shows a part of the results.
Write the value as a bare number.

Example results:
                        structure_as_smiles  numeric_readout
0             CN(C)/C=C1\CSc2ccc(Cl)cc2C1=O            0.886
1     O=S(=O)(c1cc(Cl)ccc1Cl)N1CCc2ccccc2C1             1.08
2  O=S(=O)(Nc1ccccc1Sc1c(Cl)cncc1Cl)c1ccc(Cl)cc1             1.06

Kindly review the next compound as well.
query: What does the data say about its normalized growth? Entry: Cc1ccc(Sc2ncccc2NS(=O)(=O)c2ccc(Cl)cc2)cc1
result: 0.928

====

assay: chemical genetic growth profiling, strain panel (AID 1159580); conditions: S. cerevisiae deletion strains, growth OD, locus YAL030W, strain snc1
The campaign covered roughly 5,500 compounds. About 2,000 (36%) were called active. Not shown: some 18% with an inconclusive outcome. Cut-off read from the data, not from the text of the source: active = normalized growth mostly below about 0.91 (no sharp cut-off); inconclusive = no clear call, values can overlap the other calls; inactive = mostly above about 0.92. The list shows a part of the results.
Result category, one only: active, inactive

# example entries with known answers
COMPOUND	LABEL
C[C@@H](CO)NC(=O)C1C=C2c3cccc4[nH]cc(c34)C[C@H]2N(C)C1 (stereo partly specified)	inactive
CC[C@@]1(O)C(=O)OCc2c1cc1n(c2=O)Cc2cc3cc(O)ccc3nc2-1	inactive

query: How was CC1=CC(=O)C2C(C)(C)CCC[C@]2(C)[C@@]1(O)CCc1ccoc1 (stereo partly specified) classified in this test?
result: inactive

query: How was CC1(C)Oc2ccc3ccc(=O)oc3c2CC1O (stereo unspecified) classified in this test?
result: inactive

query: How was Cc1c(OCC(F)(F)F)ccnc1CS(=O)c1nc2ccccc2[nH]1 (stereo unspecified) classified in this test?
result: inactive

query: How was O=C(CCCN1CCC2(CC1)C(=O)NCN2c1ccccc1)c1ccc(F)cc1 classified in this test?
result: inactive

query: How was CCC(=O)OCC(=O)C1(OC(=O)CC)C(C)CC2C3C(Cl)CC4=CC(=O)C=CC4(C)C3C(O)CC21C (stereo unspecified) classified in this test?
result: inactive

query: How was CC(C)C[C@@H](NC(=O)OCC1c2ccccc2-c2ccccc21)C(=O)O classified in this test?
result: inactive

query: How was O=C(O)CCc1nc(-c2ccccc2)c(-c2ccccc2)o1 classified in this test?
result: inactive

query: How was CC[C@@]1(O)C(=O)OCc2c1cc1n(c2=O)Cc2cc3ccccc3nc2-1 classified in this test?
result: active

query: How was CC1(C)S[C@@H]2C(N3C(=O)[C@@H](c4ccccc4)NC3(C)C)C(=O)N2[C@H]1C(=O)O (stereo partly specified) classified in this test?
result: inactive

query: How was CN(C)C(=O)C(CCN1CCC(O)(c2ccc(Cl)cc2)CC1)(c1ccccc1)c1ccccc1 classified in this test?
result: inactive

query: How was CC(=O)OCC(=O)[C@@]1(O)CCC2C3C[C@H](C)C4=CC(=O)C=CC4(C)C3[C@@H](O)CC21C (stereo partly specified) classified in this test?
result: inactive

query: How was O=S(=O)(O)O classified in this test?
result: inactive

query: How was CCn1nc(C(=O)O)c(=O)c2cc3c(cc21)OCO3 classified in this test?
result: inactive

query: How was COc1cc(O)c2c(=O)cc(-c3ccc(OC)c(-c4c(O)cc(O)c5c(=O)cc(-c6ccc(O)cc6)oc45)c3)oc2c1 classified in this test?
result: inactive

query: How was C[C@@H]1CC[C@@]23CCC4(C)[C@@](C=CC5[C@@]6(C)CCC(=O)C(C)(C)C6CC[C@]54C)(OC2=O)C3[C@H]1C (stereo partly specified) classified in this test?
result: inactive

query: How was C[C@@H]1CC[C@@]23CCC4(C)[C@@](C=CC5[C@@]6(C)CC[C@H](O)C(C)(C)C6CC[C@]54C)(OC2=O)C3[C@H]1C (stereo partly specified) classified in this test?
result: inactive

query: How was O=c1c(O)cc([C@H]2Oc3cc(O)cc(O)c3C[C@H]2O)cc2c([C@H]3Oc4cc(O)cc(O)c4C[C@H]3O)cc(O)c(O)c12 classified in this test?
result: inactive

query: How was CC1=CC(=O)C(C(C)C)=CC1=O classified in this test?
result: active

query: How was NC(=O)c1cc([N+](=O)[O-])cc([N+](=O)[O-])c1 classified in this test?
result: inactive

query: How was COc1ccccc1N1CCN(CCCNc2cc(=O)n(C)c(=O)n2C)CC1 classified in this test?
result: inactive

query: How was C/C=C/CC(C)C(O)C1C(=O)NC(CC)C(=O)N(C)CC(=O)N(C)C(CC(C)C)C(=O)NC(C(C)C)C(=O)N(C)C(CC(C)C)C(=O)NC(C)C(=O)NC(C)C(=O)N(C)C(CC(C)C)C(=O)N(C)C(CC(C)C)C(=O)N(C)C(C(C)C)C(=O)N1C (stereo unspecified) classified in this test?
result: inactive

query: How was C[C@@H]1CCC2[C@](C)(CO)[C@@H](O)CC[C@]2(C)[C@@]12CC[C@@](CO)(CCO)O2 (stereo partly specified) classified in this test?
result: inactive

query: How was C/C=C(\C)C(=O)O[C@@H]1c2c(ccc3ccc(=O)oc23)OC(C)(C)[C@@H]1OC(C)=O classified in this test?
result: inactive

query: How was COc1cccc2c1CCC1=CC(=O)CC[C@@]12C classified in this test?
result: inactive

====

experiment: chemical genetic growth profiling, strain panel (AID 1159580);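 also: tested at 20 µM; growth read once vehicle control cultures reached saturation at 30 °C; 1 = growth at the plate median or of vehicle wells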; conditions: S. cerevisiae deletion strains, growth OD, locus YFR010W, strain ubp6, stronger effect = lower value
The whole screen tested about 5,500 compounds, of which about 2,000 (36%) were called active. Inconclusive results (about 18%) are left out. The list shows a part of the results.
Listed compounds paired with reported normalized growth
Write the value as a bare number.

Example results:
COMPOUND	NUMERIC_READOUT
O=C(O)c1ccccc1O	0.978
COC(=O)CC1C(C)(C)C(OC(C)=O)[C@@H]2[C@@H](OC(C)=O)[C@]34O[C@@]2(O)[C@]1(C)C3CC[C@]1(C)C4=CC(=O)O[C@H]1c1ccoc1 (stereo partly specified)	1
CC1Cc2ccccc2N1NC(=O)c1ccc(Cl)c(S(N)(=O)=O)c1 (stereo unspecified)	1
CCCCCC(O)C1C(=O)OC(C)C(O)/C=C/C=C/C=C/C=C/C=C(\C)C(O)CC(O)CC(O)CC(O)CC(O)CC(O)CC1O (stereo unspecified)	0.984
Cc1ncc(CO)c(CO)c1O	1.02

query: What does the data say about its normalized growth? Entry: C[C@H]1O[C@@H](O[C@H]2[C@@H](O)C[C@H](O[C@H]3[C@@H](O)C[C@H](O[C@H]4CC[C@]5(C)C6C[C@@H](O)[C@]7(C)[C@@H](C8=CC(=O)OC8)CC[C@]7(O)C6CC[C@@H]5C4)O[C@@H]3C)O[C@@H]2C)C[C@H](O)[C@@H]1O (stereo partly specified)
result: 1

====

assay: chemical genetic growth profiling, strain panel (AID 1159580);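 also: tested at 20 µM; growth read once vehicle control cultures reached saturation at 30 °C; 1 = growth at the plate median or of vehicle wells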; settings: S. cerevisiae deletion strains, growth OD, locus YMR205C, strain PFK2 (second series), stronger effect = lower value
About 2,000 (36%) of roughly 5,500 compounds were called active. Inconclusive results (about 18%) are left out. Some of the results follow.
Listed compounds paired with reported normalized growth

Example results:
>>> print(df.to_string())
                                   compound   measurement_kind            result
0  O=C(Nc1ccc(SC(F)(F)F)cc1)Nc1ccc(Oc2cccc(C(F)(F)F)c2)nc1  normalized growth  0.974 (inactive)
1  Cc1ccc(Sc2ncccc2NS(=O)(=O)c2ccc(Cl)cc2)cc1  normalized growth  0.888 (inactive)
2          O=C1OC(c2ccccc2)=C/C1=C/c1ccccc1  normalized growth  0.843 (inactive)

Kindly review the next compound as well.
query: What does the data say about its normalized growth? Entry: Clc1cccc(Cl)c1C1CC(c2ccccc2)=Nc2ccccc2S1 (centres undefined)
result: 0.979 (inactive)

====

test: chemical genetic growth profiling, strain panel (AID 1159580);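 also: tested at 20 µM; growth read once vehicle control cultures reached saturation at 30 °C; 1 = growth at the plate median or of vehicle wells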; conditions: S. cerevisiae deletion strains, growth OD, locus YOR001W, strain rrp6, stronger effect = lower value
Among all 5,500 compounds or so, about 2,000 (36%) were called active. Inconclusive results (about 18%) are left out. This is one part of the list.
Lab note: compare normalized growth with 1, writing fulfilled if less and not fulfilled if equal or more.

# example entries with known answers
COMPOUND	LABEL
C[C@H]1O[C@@H](O[C@H]2[C@@H](O)C[C@H](O[C@H]3[C@@H](O)C[C@H](O[C@H]4CC[C@]5(C)C6C[C@@H](O)[C@]7(C)[C@@H](C8=CC(=O)OC8)CC[C@]7(O)C6CC[C@@H]5C4)O[C@@H]3C)O[C@@H]2C)C[C@H](O)[C@@H]1O (stereo partly specified)	not fulfilled
C[C@H]1[C@H](C)CC[C@]2(C(=O)O)CC[C@]3(C)C(=CCC4[C@@]5(C)C[C@@H](O)[C@H](O)[C@@](C)(CO)C5[C@H](O)C[C@]43C)[C@H]12 (stereo partly specified)	fulfilled

query: Criterion: normalized growth strictly below 1. Is it met by CC1(C)[C@@H]2CC[C@@]1(C)C(=O)C2 ?
result: not fulfilled

query: Criterion: normalized growth strictly below 1. Is it met by C[C@H]1O[C@@H](O[C@H]2[C@@H](O)C[C@H](O[C@H]3[C@@H](O)C[C@H](O[C@H]4CC[C@]5(C)C6CC[C@]7(C)[C@@H](C8=CC(=O)OC8)CC[C@]7(O)C6CC[C@@H]5C4)O[C@@H]3C)O[C@@H]2C)C[C@H](O)[C@@H]1O (stereo partly specified) ?
result: not fulfilled

query: Criterion: normalized growth strictly below 1. Is it met by CC(C)(C)NCC(O)COc1cccc2c1CCCC2=O (stereo unspecified) ?
result: fulfilled

query: Criterion: normalized growth strictly below 1. Is it met by CC[C@@]1(O)C(=O)OCc2c1cc1n(c2=O)Cc2cc3ccccc3nc2-1 ?
result: fulfilled

query: Criterion: normalized growth strictly below 1. Is it met by CC(=O)OC1CC[C@@]2(C)C(CCC3C2CC[C@]2(C)C(C4=CC(=O)OC4)C(OC(C)=O)CC32O)C1 (stereo partly specified) ?
result: not fulfilled
